Source of measurements: the supplement of paper PMC10567573

B1: EPB41L3 (parent)
chain: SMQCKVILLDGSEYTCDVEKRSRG

- Variants of: B1
- Test summary: protein stability index of a GFP-peptide fusion (GPS, HEK-293T) (PSI 1-6); higher = more stable;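 note: lentivirally expressed fusions sorted by FACS into six bins by GFP to DsRed ratio, PSI derived from sequencing read proportions per bin multiplied by bin number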
- Experimental context: c terminus: a fixed tail appended
Reported property: protein stability index
Please state the value as a number alone, without comment.

// solved cases for protein stability index follow
{"columns": ["Variant", "protein stability index"],
 "data": [
  ["E19N", 2.29],
  ["M2G", 3.36],
  ["Y14C", 2.67],
  ["G11C", 2.41],
  ["M2P", 3.42],
  ["R21E", 3.09],
  ["S12G", 2.9],
  ["E13H", 2.75],
  ["R23C", 3.04],
  ["C4Y", 2.29]
]}

Read the entry "S1L" and write its reported protein stability index. 2.2

Read off the recorded protein stability index for "C16S" 2.65
